Measured values drawn from patent US20120238493A1 for this set.

Exercise: state measured EC50 (cAMP reporter) for each of the binders provided.
- TARGET OR SYSTEM: glucagon receptor (UniProt P47871 26-477, limits assumed)
- Sequence (P47871 26-477 limits assumed): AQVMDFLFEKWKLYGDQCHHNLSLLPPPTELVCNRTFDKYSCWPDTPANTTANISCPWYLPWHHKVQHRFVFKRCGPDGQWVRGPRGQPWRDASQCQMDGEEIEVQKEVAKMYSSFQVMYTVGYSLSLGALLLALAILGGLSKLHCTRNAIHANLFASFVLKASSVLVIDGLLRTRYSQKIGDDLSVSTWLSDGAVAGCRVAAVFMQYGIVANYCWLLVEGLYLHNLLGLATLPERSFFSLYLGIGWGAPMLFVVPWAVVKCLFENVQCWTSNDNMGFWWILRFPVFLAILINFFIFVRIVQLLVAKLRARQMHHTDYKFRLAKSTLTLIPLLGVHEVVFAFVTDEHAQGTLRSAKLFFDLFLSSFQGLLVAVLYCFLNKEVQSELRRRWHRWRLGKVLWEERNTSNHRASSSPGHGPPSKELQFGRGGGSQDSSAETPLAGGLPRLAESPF
- MEASUREMENT DESCRIPTION: cell-based or functional assay
Bridges are numbered along the chain shown (N, C = ends). Where no end group is shown, it is not given here. [ ]: non-standard residue; d: D form. Aib = CC(C)(N)C(=O)O
Numbers only, in nM.

Solved entries:
{"BINDER": "Y[Aib]QGTFTSDYSKYLDEIHQKDFVNWLLAQ-NH2 (not fully specified (residue 20)) [mt-405 (SEQ ID NO: 14)]", "PROPERTY LABEL": "EC50 (cAMP reporter)", "OBS VALUE": 0.0096}
{"BINDER": "HSQGTFISDYSKALDEIHQKEFIAWLMNT-NH2 (lactam 16-20; not fully specified (residue 2); also: AIB at position 2 and position 20 (given S and K), any further modification only) [mt-404 (SEQ ID NO: 13)]", "PROPERTY LABEL": "EC50 (cAMP reporter)", "OBS VALUE": 0.108}
{"BINDER": "Y[Aib]EGTFTSDYSIYLDKQAA[Aib]EFVNWLLAGGPSSGAPPPSK-NH2 [mt-263 (SEQ ID NO: 10)]", "PROPERTY LABEL": "EC50 (cAMP reporter)", "OBS VALUE": 4.04}

Turning now to a further record.
So what's the measured EC50 (cAMP reporter) for this one? HSQGTFISDYSKYLDEIHQKEFIAWLMNT-NH2 (lactam 16-20; not fully specified (residue 2); also: AIB at position 2 and position 20 (given S and K), any further modification only) [mt-403 (SEQ ID NO: 12)]
0.0077
